- assay_text: murine CD8 T cell vesicle adhesion modulation – mouse 2C CD8+ T cells, flow cytometry, primary screen (AID 2052)
- study_conditions: 2C CD8+ T cell-vesicle binding, at 7 µM, stronger effect = lower value; measured here: CD8+ vesicle-bound cell fraction
The campaign covered roughly 330,000 compounds. About 220 (0.067%) were called active. What follows is part of a selection rich in actives, with near analogues and random picks from the rest.
Criterion: double positive events strictly under 20%. Met: t. Not met: f.

Here are 6 molecules together with their reported answers.
{"columns": ["molecule", "label"],
 "data": [
  ["O=C(Nc1ccc(N2CCOCC2)cc1)c1ccc(-c2ccccc2[N+](=O)[O-])o1", "f"],
  ["O=S(=O)(Nc1ccc(Cl)cn1)c1cnc(Cl)c(Br)c1", "t"],
  ["Cc1cc(Br)ccc1NC(=O)CN(C)C(=O)CN1C(=O)NC2(CCCC2)C1=O", "t"],
  ["CCCCCN(C(=O)NC(=O)Nc1cccc(C)c1C)S(C)(=O)=O", "f"],
  ["CC(=O)c1cccc(NC(=O)CN2C(=O)c3cccnc3Oc3ccc(Cl)cc32)c1", "f"],
  ["Cc1ccc(NC(=O)CN(C)S(=O)(=O)c2cnc[nH]2)cc1C", "t"]
]}

is_below(double positive events, 20%) for `O=C(COc1ccccc1)Nc1ccc(N2CCN(C(=O)c3cccs3)CC2)cc1` ?
t

is_below(double positive events, 20%) for CCc1nc2ccccc2c(C(=O)OC2CCCCC2=O)c1C (stereo not given) ?
f

is_below(double positive events, 20%) for `CN1C(=O)/C(=C/C=C2\SCCN2C)OC1=S` ?
f

is_below(double positive events, 20%) for `COc1ccc(CCNC(=O)CN(c2ccccc2)S(C)(=O)=O)cc1OC` ?
f

is_below(double positive events, 20%) for `COc1ccccc1CNC(=O)c1ccc(N(C)S(=O)(=O)c2ccc(C)cc2)cc1` ?
t

is_below(double positive events, 20%) for `Cn1nnc(NC(=S)NC(=O)c2ccccc2)n1` ?
f

is_below(double positive events, 20%) for `CCN(CC(=O)Nc1c(F)cccc1F)C(=O)CN1c2cccc3cccc(c23)S1(=O)=O` ?
f

is_below(double positive events, 20%) for Cc1cccc(C(=O)NCc2nnc(SC(C)C(=O)Nc3nnc(C)s3)n2C)c1 (stereo not given) ?
t
